Values from paper PMC2756588

System Tested: T1, Bzz1-2, P38822
T1 sequence (P38822 568-633, looked up): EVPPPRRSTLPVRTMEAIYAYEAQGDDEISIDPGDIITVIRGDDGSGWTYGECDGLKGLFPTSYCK
Assay Method Text: SPOT array
Assay Setup: median of control spots 4538
# reported SPOT intensity; entries follow
Keep it simple and answer with nothing but the number.

# example entries with known answers
VYTRTAFQIPGDDKI	3
NPTKSPPPPPSPSTM	253
LKPPIGRPPKFPKSP	0
TTNRGPPPLPPRANV	8
SLSRRRFSLPSMPNV	17
QQEQNTPPLPPKPKS	3

Continue with the next binder.
SPOT intensity reading for VNIPSPSSSPPPIPK : 0
